assayName: probe aNOTCH2 binding on compound microarray – biochemical, small-molecule microarray, 635/667 nm fluorescence, primary screen (AID 1121);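 also: score merges feature fluorescence read at 667 nm with its signal to noise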
testContext: higher = more signal
Record form. Attribute: composite z-score. Fill in for each entry.
Numbers only.

CO[C@H]1O[C@H](CO)[C@@H](OC(=O)Nc2ccccc2-c2ccccc2)[C@H](OC(=O)Nc2ccccc2-c2ccccc2)[C@@H]1OC(=O)Nc1ccccc1-c1ccccc1
-0.0513
COc1ccc([Si](C)(C)[C@H]2[C@H](CC(=O)N3CCC[C@H]3CO)O[C@@]3(C(=O)N(Cc4cccc(N5CCOC5=O)c4)c4ccccc43)[C@@H]2C)cc1
-0.151
O=C1OCCC=C[C@H]2OC34C=CCN(c5ccc(Cl)cc5)C(=O)[C@H]3N(CCCO)C(=O)[C@@H]4C12 (stereo not given in full)
-0.186
O=C(CS)NCCCCCNC(=O)[C@@H]1C[C@@H]2C(=O)NCC(=O)N2[C@@H]1c1cccc(OCCO)c1
-0.125
O=C1O[C@@H](c2ccccc2)[C@@H](c2ccccc2)N2[C@@H](c3ccccc3OCCO)[C@]3(C(=O)Nc4ccc(C#CC5(O)CCCCCC5)cc43)[C@@H](C(=O)N3CCN(c4ncccn4)CC3)[C@H]12
-0.131

Record composite z-score for all entries; do not skip any.
1. CCOC(=O)C[C@H]1[C@H](OC(=O)c2cc3ccccc3oc2=O)[C@@H](NC(=O)CC(C)C)c2cc(OCCCO)ccc2N1C(=O)c1ccccc1
2. CC(=O)n1cc(C(O)C2C=CC3C(=O)NC(=O)C3N2Nc2ccccn2)c2ccccc21 (stereo not given)
3. COC(=O)[C@@]1(Cc2ccc(OC)cc2)[C@H]2c3cc(C(=O)N4CCCC4)n(CCSCCO)c3C[C@H]2CN1C(=O)c1ccccc1
4. CCCC1(C(=O)OC)C=C2C(=C(c3ccccc3)C(=O)C2C)CN1 (stereo not given)
5. CCCCN1CC=CC23O[C@@H]4C=CCCOC(=O)C4[C@H]2C(=O)N(CCCCCO)[C@@H]3C1=O (stereo not given in full)

1: -0.14; 2: -0.176; 3: 0.0312; 4: 0.015; 5: -0.132

Below are some molecules; for each one, tell me its composite z-score.
1. Cc1ccc([C@H]2C(C(=O)O)=CCN2S(=O)(=O)c2ccc(C)cc2)cc1
2. Cc1ccc(C2C3C(=O)CC4C(=O)N(c5ccccc5)C(=O)C4C3CN2S(=O)(=O)c2ccc(C)cc2)cc1 (stereo not given)

[-0.109, 0.603]

For each of the items listed, what is its composite z-score?
1. CCCCC(=C=CC[C@@H](O)c1ccc(CO)o1)CCO
2. O=C(NCCN1CCOCC1)[C@@H]1c2ccccc2C(=O)N(Cc2cc(C(F)(F)F)cc(C(F)(F)F)c2)[C@H]1c1ccc(CO)cc1
3. CN(C)CCCCCCNC(=O)[C@@H]1C[C@@H]2C(=O)N3CCC[C@H]3C(=O)N2[C@@H]1c1ccc(O)cc1

1: -0.044; 2: -0.101; 3: 0.119
